The origin of these recorded values is patent US10898469B2.

# System: HCT-116 cells
# experiment.summary: Inhibition test for sphere-forming ability of cancer cells in the presence of BSA (Test Example 2), HCT-116
# Type: cell-based, human
# condition.notes: HCT-116 cells, in the presence of 5% BSA, cultured 4 days
outcome.measure: IC50 (nM)
One number for each entry, in nM.

Examples with answers:
O=C(Nc1cn(Cc2cccc(C(F)(F)F)c2)cn1)c1ccc2cnccc2n1 [Example 193]	600
O=C(Nc1cn(Cc2cc(F)c(F)c(F)c2)cn1)c1ccc(CO)cc1 [Example 175]	770
CCNc1ccc(/C=C/C(=O)Nc2cn(Cc3cccc(Cl)c3)cn2)cn1 [Example 18]	580

Please examine the following record next.
IC50 reading for O=C(/C=C/c1ccc(NCC(F)(F)F)nc1)Nc1cn(Cc2cccc(Cl)c2)cn1 [Example 15] : 80
